For each record, write down the corresponding IC50.
Biological target: N-type calcium channel (NTCC) (Homo sapiens, UniProt Q00975)
Sequence (Q00975 whole entry): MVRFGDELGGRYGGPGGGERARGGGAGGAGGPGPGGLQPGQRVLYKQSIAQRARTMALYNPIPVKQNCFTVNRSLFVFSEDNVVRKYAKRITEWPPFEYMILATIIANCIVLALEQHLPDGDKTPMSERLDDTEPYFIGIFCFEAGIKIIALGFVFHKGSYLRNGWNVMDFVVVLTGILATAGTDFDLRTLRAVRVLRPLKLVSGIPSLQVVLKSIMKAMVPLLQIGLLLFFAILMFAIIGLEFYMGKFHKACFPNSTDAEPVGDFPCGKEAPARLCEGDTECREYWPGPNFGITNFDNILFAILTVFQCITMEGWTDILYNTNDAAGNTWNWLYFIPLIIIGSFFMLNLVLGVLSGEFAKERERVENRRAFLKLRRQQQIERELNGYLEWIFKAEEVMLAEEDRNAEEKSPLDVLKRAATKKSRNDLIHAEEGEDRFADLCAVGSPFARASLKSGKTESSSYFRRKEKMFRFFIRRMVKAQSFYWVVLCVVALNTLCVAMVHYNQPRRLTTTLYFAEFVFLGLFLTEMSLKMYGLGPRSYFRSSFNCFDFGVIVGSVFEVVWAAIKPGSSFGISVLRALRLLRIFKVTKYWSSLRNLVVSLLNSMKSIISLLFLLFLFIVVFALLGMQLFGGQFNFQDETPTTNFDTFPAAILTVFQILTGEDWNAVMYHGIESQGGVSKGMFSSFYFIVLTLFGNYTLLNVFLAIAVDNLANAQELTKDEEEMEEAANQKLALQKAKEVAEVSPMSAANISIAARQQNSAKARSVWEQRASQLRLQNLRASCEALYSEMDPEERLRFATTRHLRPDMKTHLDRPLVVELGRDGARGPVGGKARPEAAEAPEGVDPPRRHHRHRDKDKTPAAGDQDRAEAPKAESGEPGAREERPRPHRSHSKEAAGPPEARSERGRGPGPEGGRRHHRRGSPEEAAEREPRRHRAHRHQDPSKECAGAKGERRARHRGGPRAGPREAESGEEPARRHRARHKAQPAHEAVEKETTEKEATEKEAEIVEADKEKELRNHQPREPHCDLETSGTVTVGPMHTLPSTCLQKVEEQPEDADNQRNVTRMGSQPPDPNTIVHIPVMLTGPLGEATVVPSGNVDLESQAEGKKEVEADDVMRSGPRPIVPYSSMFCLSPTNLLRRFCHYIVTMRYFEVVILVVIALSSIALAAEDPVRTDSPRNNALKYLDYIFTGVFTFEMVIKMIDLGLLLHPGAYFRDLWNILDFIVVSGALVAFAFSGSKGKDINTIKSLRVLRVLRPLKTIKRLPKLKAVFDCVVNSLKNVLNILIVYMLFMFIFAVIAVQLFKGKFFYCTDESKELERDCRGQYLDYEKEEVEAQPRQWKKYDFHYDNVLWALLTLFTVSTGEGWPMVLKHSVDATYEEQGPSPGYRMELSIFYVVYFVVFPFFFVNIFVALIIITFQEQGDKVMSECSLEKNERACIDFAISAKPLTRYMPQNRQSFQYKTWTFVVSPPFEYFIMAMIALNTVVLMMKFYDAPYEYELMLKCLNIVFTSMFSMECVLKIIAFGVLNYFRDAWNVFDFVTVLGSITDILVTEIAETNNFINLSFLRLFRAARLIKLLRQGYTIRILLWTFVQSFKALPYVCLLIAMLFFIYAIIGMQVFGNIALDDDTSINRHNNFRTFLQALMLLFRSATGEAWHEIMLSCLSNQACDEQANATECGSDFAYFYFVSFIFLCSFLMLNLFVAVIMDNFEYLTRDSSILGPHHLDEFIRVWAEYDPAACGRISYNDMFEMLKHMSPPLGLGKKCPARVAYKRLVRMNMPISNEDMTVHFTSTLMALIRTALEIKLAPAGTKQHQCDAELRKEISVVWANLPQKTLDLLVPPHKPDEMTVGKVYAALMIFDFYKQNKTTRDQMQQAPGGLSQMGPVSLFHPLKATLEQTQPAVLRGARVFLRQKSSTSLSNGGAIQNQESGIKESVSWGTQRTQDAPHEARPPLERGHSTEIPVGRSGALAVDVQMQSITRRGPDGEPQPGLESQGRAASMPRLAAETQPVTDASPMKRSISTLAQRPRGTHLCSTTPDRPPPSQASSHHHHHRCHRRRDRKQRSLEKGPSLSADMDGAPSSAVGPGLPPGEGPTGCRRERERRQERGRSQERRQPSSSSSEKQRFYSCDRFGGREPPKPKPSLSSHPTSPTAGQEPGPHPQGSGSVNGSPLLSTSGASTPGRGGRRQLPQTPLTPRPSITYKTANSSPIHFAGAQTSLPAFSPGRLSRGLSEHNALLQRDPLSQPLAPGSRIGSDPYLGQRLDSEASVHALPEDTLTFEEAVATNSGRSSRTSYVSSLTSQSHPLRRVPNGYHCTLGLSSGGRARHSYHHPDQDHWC
Sequence (P54289 25-956 partner limits assumed): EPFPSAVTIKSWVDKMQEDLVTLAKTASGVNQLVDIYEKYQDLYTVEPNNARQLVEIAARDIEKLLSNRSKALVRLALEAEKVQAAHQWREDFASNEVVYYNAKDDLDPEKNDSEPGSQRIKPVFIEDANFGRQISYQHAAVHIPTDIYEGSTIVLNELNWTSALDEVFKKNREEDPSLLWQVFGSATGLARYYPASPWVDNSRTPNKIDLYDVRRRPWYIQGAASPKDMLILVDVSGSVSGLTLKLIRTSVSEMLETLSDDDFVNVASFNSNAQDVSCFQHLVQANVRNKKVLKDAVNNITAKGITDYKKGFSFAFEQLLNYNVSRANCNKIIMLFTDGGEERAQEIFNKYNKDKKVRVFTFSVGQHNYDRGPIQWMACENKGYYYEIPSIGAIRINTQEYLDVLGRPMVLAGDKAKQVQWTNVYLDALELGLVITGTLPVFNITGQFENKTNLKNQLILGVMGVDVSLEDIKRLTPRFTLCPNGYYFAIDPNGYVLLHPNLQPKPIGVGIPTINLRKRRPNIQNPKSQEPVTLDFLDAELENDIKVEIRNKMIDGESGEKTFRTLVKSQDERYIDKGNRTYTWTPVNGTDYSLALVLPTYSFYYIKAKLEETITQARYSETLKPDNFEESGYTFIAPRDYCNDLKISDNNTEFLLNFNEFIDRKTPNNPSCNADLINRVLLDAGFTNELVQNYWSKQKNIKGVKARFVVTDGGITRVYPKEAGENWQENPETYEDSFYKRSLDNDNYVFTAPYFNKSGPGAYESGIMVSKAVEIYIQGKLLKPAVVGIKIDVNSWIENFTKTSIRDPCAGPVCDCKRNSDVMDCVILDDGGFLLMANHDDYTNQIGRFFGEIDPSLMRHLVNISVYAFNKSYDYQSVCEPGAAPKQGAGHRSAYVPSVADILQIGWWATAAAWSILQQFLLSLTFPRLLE
Sequence (P54289 957-1103 partner limits assumed): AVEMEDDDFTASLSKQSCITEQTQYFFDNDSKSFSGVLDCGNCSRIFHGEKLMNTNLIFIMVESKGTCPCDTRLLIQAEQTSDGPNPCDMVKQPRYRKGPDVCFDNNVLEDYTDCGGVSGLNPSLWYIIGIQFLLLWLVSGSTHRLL
Sequence (P54284 whole entry partner): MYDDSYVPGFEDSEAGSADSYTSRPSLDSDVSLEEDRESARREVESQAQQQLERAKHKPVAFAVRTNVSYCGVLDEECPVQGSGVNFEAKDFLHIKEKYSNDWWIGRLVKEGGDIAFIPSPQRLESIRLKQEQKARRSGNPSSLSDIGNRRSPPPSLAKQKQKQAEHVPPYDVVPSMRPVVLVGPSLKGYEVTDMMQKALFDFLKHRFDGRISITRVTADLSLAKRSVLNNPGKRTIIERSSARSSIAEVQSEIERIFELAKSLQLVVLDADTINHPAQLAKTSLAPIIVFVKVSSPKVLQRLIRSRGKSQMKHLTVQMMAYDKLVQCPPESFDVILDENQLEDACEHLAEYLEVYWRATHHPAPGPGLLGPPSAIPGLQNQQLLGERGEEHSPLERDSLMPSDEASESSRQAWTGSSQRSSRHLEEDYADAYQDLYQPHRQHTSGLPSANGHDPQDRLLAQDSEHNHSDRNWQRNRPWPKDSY
Assay: FLIPR calcium mobilization assay for N-type calcium channel
Conditions: calcium mobilization in vitro assay; differentiated IMR32 cells
Express it in nM; write the number only.

Challenge: Fill in: IC50 of CCC(C(=O)N1CCC(N(C(C)C)S(=O)(=O)c2cccc(C(F)(F)F)c2)CC1)N(C)Cc1ccccc1 (stereo not shown) [Compound 96] is ___
Response given: 820

Challenge: Fill in: IC50 of Cc1cccc(S(=O)(=O)N(C2CC2)C2CCN(CC(=O)Nc3cc(C(F)(F)F)cc(C(F)(F)F)c3)CC2)c1 [Compound 69] is ___
Response given: 3810

Challenge: Fill in: IC50 of CC(C)N(C1CCN(C(=O)C2(N)CCOCC2)CC1)S(=O)(=O)c1cccc(C(F)(F)F)c1 is ___
Response given: 8330

Challenge: Fill in: IC50 of CC(C)CC(CC(=O)N1CCC(N(C(C)C)S(=O)(=O)c2cccc(C(F)(F)F)c2)CC1)NCCOCc1ccccc1 (stereo not shown) is ___
Response given: 220

The measurements presented in this section are drawn from patent US8791264B2.
